System: TRPC4 (transient receptor potential cation channel C4 beta), mouse
Test: potentiation of DAMGO EC20 TRPC4 response – cell-based, second round, Fluo-4, HEK293 TRPC4beta/mu-opioid, 1 µM, confirmation (AID 2554)
Settings: DAMGO EC20, Fluo-4 calcium flux, at 1 µM
Active and inactive are the calls of the source.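 How the source made its calls: active means primary screen hit whose fluorescence ratio, in both repeats, exceeds the weak agonist control mean by 3 SD; inactive means the rest.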
API: response.call in Yes (active), No (inactive)

FC(F)Oc1ccccc1NC(=S)Nc1cccc(Cl)c1Cl: No
CCc1ccc(OCc2ccc(C(=O)NCc3ccccn3)o2)cc1: No
c1ccc(Cn2c(CN3CCCC3)nc3ccccc32)cc1: No
CCOc1ccccc1CN1CCC(n2nccc2NC(=O)CCc2ccccc2)CC1: No
O=C(C1=C[C@H](c2ccc(C(F)(F)F)cc2)C[C@H](OCCCCO)O1)N1CCN(Cc2ccccc2)CC1: No

Exercise: Hi, do you know how CCC(O)(c1ccc(OC)cc1)C(CN1CCOCC1)c1ccccc1 (stereo not given) came out in this test?
Key: No

Exercise: For Cc1ccc(-n2c(C)cc(C)c(C#N)c2=O)cc1Cl , what call appears in the results of this test?
Key: No

Exercise: I would be grateful if you could indicate the recorded call for COc1ccccc1N(C(=O)c1snc(C(N)=O)c1N)C(C(=O)NCc1ccccc1)c1ccc(O)cc1 (stereo not given) .
Key: No

Exercise: Test call for this compound, please: O=C(CNc1ccc(Br)cc1)c1ccc(O)cc1
Key: No

Exercise: What outcome does the record of this test show for Cc1ccc(NS(=O)(=O)c2cc(N)ccc2Cl)c(C)c1 ?
Key: No

Exercise: // return assay outcome for O=C1CC2(CCN(S(=O)(=O)c3ccccc3)CC2)Oc2ccccc21
Key: No

Exercise: Entry COCCn1nnnc1C(c1cc2ccc(OC)cc2[nH]c1=O)N1CCN(C2CCCCC2)CC1 (stereo not given) : call = ?
Key: No

###

Test system: TRPC4 beta (transient receptor potential cation channel C4), mouse
Assay: potentiation of DAMGO EC20 TRPC4 response – cell-based, Fluo-4, HEK293 TRPC4beta/mu-opioid, confirmation (AID 2555)
Conditions: DAMGO EC20, Fluo-4 calcium flux, at 10 µM
Calls of active or inactive are those of the source.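 How the source made its calls: active means primary screen hit whose calcium fluorescence ratio, in both repeats, exceeds the weak agonist control mean by 3 SD; inactive means the rest.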
Give your call using only these classes: active, inactive

CCCCN(CC)CCNC(=O)c1cc2c(-c3ccc(Cl)cc3)nn(C)c2s1: inactive
Cc1cc([N+](=O)[O-])ccc1NCc1ccco1: inactive
CSCCNCc1cn(-c2ccc(F)cc2F)nc1-c1ccccc1C: inactive
Cc1c(CN2CCC(n3nccc3NC(=O)CCc3ccccc3)CC2)cnn1C: inactive

Exercise: What outcome does the record of this test show for O=C(NCc1ccccc1)C1=C[C@H](c2ccc(Br)cc2)C[C@H](OCc2ccc(CO)cc2)O1 ?
Key: active

Exercise: What is the recorded call for this molecule in the test? CCOC(=O)c1cc(=O)n(Cc2ccccc2C)c2ccccc12
Key: active

Exercise: Per the records of this test, what outcome belongs to COc1ccccc1N(C(=O)c1snc(C(N)=O)c1N)C(C(=O)NCc1ccccc1)c1ccc(C)o1 (stereo not given) ?
Key: inactive

Exercise: For this molecule, state the assay outcome: CCC(=O)N1CCc2cc(Br)cc(S(=O)(=O)NCCCN(C)Cc3ccccc3)c21
Key: inactive

Exercise: Assay outcome for CCCCN=C(Nc1ccc(Cl)cc1)c1cccnc1 : what was it?
Key: inactive

Exercise: Hi, sorry to bother you, what did the test record for CCC(C)NCCOCCOc1ccccc1-c1ccccc1 (stereo not given) ?
Key: inactive

Exercise: So what was the verdict on Cc1cc(C(=O)CN2C(=O)C(=O)N(CC(C)C)C2=O)c(C)n1-c1ccccc1F in this test?
Key: inactive

###

Target: Short transient receptor potential channel 4 (Mus musculus)
Assay: calcium flux activators in TRPC4/5HT1a cells, counter-screen for TRPC4 activator project, cell-based, second counter screen, HEK293 TRPC4/5HT1a, Fluo-4 (AID 434977);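 on activation: plate controls were assay buffer for no effect and maximal serotonin response for full effect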
Conditions: Fluo-4 calcium flux, at 10 µM; stronger effect = higher value
The source made the active and inactive calls.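 Rule for the calls: active = calcium signal rise above buffer-control mean plus 5 SD in both duplicates, and also a hit in the primary screen; inactive = the rest.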
reported_endpoint: activation

Consider the worked cases shown below.
Cc1ccc(CSc2nc(-c3ccccc3)c(C#N)c(=O)[nH]2)cc1: inactive
Cc1csc2c(N3CCN(C(=O)Nc4ccc(OC(F)(F)F)cc4)CC3)ncnc12: 43.3% (active)
CCCCC(=O)N(c1ccc(C(=O)O)cc1)c1nc(-c2ccc(Cl)cc2)c(CC)s1: inactive
CN(C)S(=O)(=O)c1ccc(Cl)c(C(=O)NC2CCN(Cc3ccccc3)C2)c1 (stereo not given): inactive

Now, please, on to the next compound.
Exercise: Please tell me the measured activation for Cn1c(=O)c2c(nc(CN3CCc4ccccc4C3)n2Cc2ccccc2)n(C)c1=O ; system: Short transient receptor potential channel 4 (Mus musculus).
Key: inactive

###

Tested on: TRPC4 beta (transient receptor potential cation channel C4), mouse
Test: TRPC4 cation channel opening, retest – cell-based, Fluo4 calcium, HEK293 TRPC4beta/mu-opioid, duplicates, 10 µM, confirmation (AID 2426)
Conditions: Fluo4 calcium fluorescence, at 10 µM
Activity calls are given as the source filed them.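 The calls were made as follows: active = fluorescence ratio normalized to control raised more than 50% in primary screen plus both repeat runs; inactive = the rest.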
Outcomes you can answer with include only these: 1 (yes) for active, 0 (no) for inactive

Worked set:
CC1CCc2c(sc3ncnc(SCC(=O)Nc4ccc(C(=O)O)cc4)c23)C1 (stereo not drawn): 0 (no)
CCOc1ccc(CN2CCN(C(=O)c3ccccc3)CC2)cc1: 0 (no)
Cc1cc(S(=O)(=O)NC2CCN(Cc3ccccc3)CC2)c(C)cc1Cl: 0 (no)
CN1CCN(c2ccc(NC(=O)c3ccc(-c4cccc([N+](=O)[O-])c4)o3)cc2)CC1: 1 (yes)
CC1CN(c2nc3c(c(=O)n(Cc4ccc(Cl)c(Cl)c4)c(=O)n3C)n2C)CC(C)O1 (stereo not drawn): 0 (no)
CC1CCC2C(C1)c1sc(=O)[nH]c1SC2(C)C (stereo not drawn): 0 (no)

Exercise: Test call, this molecule: Cc1ccc(C(=O)NNC(=S)NC(=O)COc2ccccc2)cc1
Key: 1 (yes)

Exercise: // outcome(item) with item = Cc1ccc(C)c(OCCCCN2CCNCC2)c1C
Key: 0 (no)

Exercise: Entry CCN(CCCNC(=O)CCCOc1cc(=O)n(C)c2ccccc12)Cc1ccccc1 : call = ?
Key: 0 (no)

Exercise: Which result was noted for this molecule in the test: O=C(CN1CCN(Cc2ccccc2Cl)CC1)N=Nc1c(O)[nH]c2ccccc12
Key: 0 (no)

###

Molecular target: Potassium voltage-gated channel subfamily KQT member 2 (Rattus norvegicus) (UniProt O88943)
Sequence (O88943 whole entry, looked up): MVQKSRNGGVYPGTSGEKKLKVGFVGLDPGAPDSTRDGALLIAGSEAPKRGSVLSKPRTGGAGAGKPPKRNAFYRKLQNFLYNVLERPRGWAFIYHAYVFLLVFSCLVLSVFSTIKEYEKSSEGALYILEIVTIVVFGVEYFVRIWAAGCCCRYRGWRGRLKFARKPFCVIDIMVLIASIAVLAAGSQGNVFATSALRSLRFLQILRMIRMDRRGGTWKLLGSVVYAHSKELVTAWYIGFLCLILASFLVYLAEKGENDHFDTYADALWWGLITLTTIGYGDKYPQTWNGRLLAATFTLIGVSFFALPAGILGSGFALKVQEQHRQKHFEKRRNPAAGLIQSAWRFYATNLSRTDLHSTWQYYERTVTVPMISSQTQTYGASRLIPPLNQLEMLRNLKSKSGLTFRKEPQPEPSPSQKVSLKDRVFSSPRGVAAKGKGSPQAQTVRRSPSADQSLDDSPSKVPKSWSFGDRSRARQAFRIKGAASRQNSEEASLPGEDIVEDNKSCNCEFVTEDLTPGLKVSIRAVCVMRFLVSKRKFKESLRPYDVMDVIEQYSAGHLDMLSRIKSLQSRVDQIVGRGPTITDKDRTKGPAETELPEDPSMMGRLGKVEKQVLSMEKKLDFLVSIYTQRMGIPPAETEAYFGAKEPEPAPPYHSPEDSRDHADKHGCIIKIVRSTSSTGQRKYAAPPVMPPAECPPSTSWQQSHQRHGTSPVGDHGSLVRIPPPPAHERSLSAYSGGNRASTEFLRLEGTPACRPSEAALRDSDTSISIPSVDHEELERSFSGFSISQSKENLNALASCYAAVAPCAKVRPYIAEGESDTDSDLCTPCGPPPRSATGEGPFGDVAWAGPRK
Assay: KCNQ2 potassium channel activity enhancers – cell-based, CHO, FluxOR thallium flux, duplicate, confirmation (AID 2287);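 further: peak minus minimum thallium fluorescence divided by baseline after K/Tl stimulus; 0% = vehicle mean plus 3 SD and 100% = vehicle minus unstimulated blank difference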
Conditions: CHO-KCNQ2 cells, FluxOR thallium flux fluorescence; at 10 µM; stronger effect = higher value
This is one part of the list.
So basically: potentiation, less the hit threshold at 10% or higher? That is YES. Lower than 10%? That is NO.

O=C(NCc1ccc2c(c1)OCO2)c1ccc(Cl)s1: YES
COc1ccc(-c2n[nH]c(C)c2-c2ccccc2OC)c(O)c1: NO
CN(c1ccccc1)S(=O)(=O)c1ccc(Cl)c(C(=O)OCC(=O)NCc2ccco2)c1: NO
CC1(c2ccccc2Cl)NC(=O)N(CC(=O)NC(=O)NCc2ccco2)C1=O (stereo not given): NO
CC(C)(C)C1CCC(C(=O)NCC(c2cccs2)N2CCOCC2)CC1 (stereo not given): YES

Exercise: Please check the record CCCCNC(=O)Nc1c(C)cc(SC#N)cc1C and state if its potentiation, less the hit threshold is at or above 10%.
Key: YES

Exercise: For this compound, is measured potentiation, less the hit threshold 10% or higher? CCCn1c(C2CCCN2c2nc(-c3ccc(C)cc3)cs2)nc2cc(Cl)c(N3CCCCC3)cc21 (stereo not given)
Key: NO

Exercise: Answer whether potentiation, less the hit threshold of Cc1ccc(NC(=O)C2CC2c2ccccc2)cc1 (stereo not given) is greater than or equal to 10%.
Key: YES

Exercise: # check: potentiation, less the hit threshold of CCC1(C)Cc2c(sc3[nH]c(=S)n(Cc4ccccc4)c(=O)c23)CO1 (stereo not given) is greater than or equal to 10%
Key: YES

Exercise: I'd appreciate it if you could say whether Cc1ccc(S(=O)(=O)N2CCN(C(=O)COC(=O)c3c(C)cc(C)cc3C)CC2)c(C)c1 has potentiation, less the hit threshold at least equal to 10%.
Key: YES

Exercise: Does CCn1c(=S)[nH]c2sc3c(c2c1=O)CCCCC3 have a reported potentiation, less the hit threshold of at least 10%?
Key: YES

Exercise: Quick check, potentiation, less the hit threshold >= 10%? COc1ccc(C(=O)Nc2ncc3c(n2)-c2ccccc2CC3)cc1
Key: NO

Exercise: Please tell me: is the compound O=C(/C=C/Sc1ncn[nH]1)c1ccc(Cl)cc1 at or over 10% in terms of potentiation, less the hit threshold?
Key: NO

Exercise: Decide: potentiation, less the hit threshold of CCOC(=O)NC(C(F)(F)F)(C(F)(F)F)P(=O)(c1ccccc1)c1ccccc1 >= 10%?
Key: NO

Exercise: Kindly determine if potentiation, less the hit threshold recorded for CC(NC(=O)Nc1ccccc1)c1ccccc1 (stereo not given) is above or exactly 10%.
Key: YES
